All values here come from patent US20170114030A1.

Test system: NCI-H716 cells
Assay: In vitro GLP-1 secretion-accelerating action (active GLP-1 ELISA)
Format: cell-based
Settings: Experiment 5, 10 mM, 1 hour, Student's t-test
quantityKind: Significant difference (p < 0.05) vs control group, amount of active GLP-1 secreted

compound	testValue
CC(C)CC1NC(=O)CNC1=O (stereo not drawn)	No
O=C1CNC(=O)C(Cc2c[nH]cn2)N1 (stereo not drawn)	No
O=C(O)CCC1NC(=O)CNC1=O (stereo not drawn)	No
NC(=O)CCC1NC(=O)CNC1=O (stereo not drawn)	No
O=C(O)CC1NC(=O)CNC1=O (stereo not drawn)	Yes
O=C1NCC(=O)N2CCCC12 (stereo not drawn)	Yes

---

System: plasma active GLP-1
Test: In vivo plasma active GLP-1 level-increasing action after oral administration
Set-up: species or system mice
Conditions: Experiment 7; mice; 10 mg/kg orally; 30 minutes; Student's t-test
quantityKind: Significant difference (p < 0.05) vs control group, plasma active GLP-1 level

molecule	testValue
CC(C)C1NC(=O)C(Cc2ccc(O)cc2)NC1=O (stereo not drawn)	Yes
CC(O)C1NC(=O)C(Cc2ccc(O)cc2)NC1=O (stereo not drawn)	Yes
O=C(O)CCC1NC(=O)C(Cc2ccc(O)cc2)NC1=O (stereo not drawn)	No
NC(=O)CCC1NC(=O)C(Cc2ccc(O)cc2)NC1=O (stereo not drawn)	Yes
O=C(O)CC1NC(=O)C(Cc2ccc(O)cc2)NC1=O (stereo not drawn)	No
NC(=O)CC1NC(=O)C(Cc2ccc(O)cc2)NC1=O (stereo not drawn)	No
